system: white mice; test: Acute toxicity, single oral dose; format: in vivo; settings: white mice, 600 mg/kg p.o., 14 days observation
observable: animals died

Recorded result, Cc1ccc(-c2nc3cc(C4=NNC(=O)CC4C)ccc3[nH]2)cc1 (stereo not shown) [H] , animals died: 0 out of 6

Value of animals died reported for the molecule Cc1nc2cc(C3=NNC(=O)CC3C)ccc2[nH]1 (stereo not shown) [Compound A] is 1 out of 3

Lab book: animals died of CC1CC(=O)NN=C1c1ccc2[nH]c(-c3ccccc3F)nc2c1 (stereo not shown) [D] noted as 0 out of 6

Consider COc1ccc(-c2nc3ccc(C4=NNC(=O)CC4C)cc3[nH]2)cc1 (stereo not shown) [G] . Its measured animals died is 3 out of 6

Values were extracted from patent US4361563A.
